- Tested on: C. elegans
- assay-summary: microbe, parasite or virus in culture
- measurement-parameters: Caenorhabditis elegans, 24 h, read-out: Percentage of motility inhibition 24 h, Table S2, C. elegans SS assay, 110 μM, 24 h, averages of 4 data points
Respond with label 1 for inhibition at 110 µM values of 10% and above, label 0 for values below.

Solved entries (count: 8):
[[record]]
compound = "COC(=O)C1=CO[C@@H](O[C@@H]2O[C@H](CO)[C@@H](O)[C@H](O)[C@H]2O)[C@H]2[C@@H]1[C@H](O)C[C@]2(C)O [Shanzhiside methyl ester]"
system = "C. elegans"
class = "label 1"

[[record]]
compound = "CC(C)=CCCC(C)CCO (stereo not drawn)"
system = "C. elegans"
class = "label 1"

[[record]]
compound = "N[C@@H](CCC(=O)O)C(=O)O"
system = "C. elegans"
class = "label 0"

[[record]]
compound = "COc1cc2c(cc1O)C[C@H]1c3c(cc(O)c(OC)c3-2)CCN1C"
system = "C. elegans"
class = "label 0"

[[record]]
compound = "N#C/C(=C1/SC[C@@H](c2ccc(Cl)cc2Cl)S1)n1ccnc1"
system = "C. elegans"
class = "label 0"

[[record]]
compound = "Cc1ccc2c(Cl)cc(Cl)c(O)c2n1"
system = "C. elegans"
class = "label 1"

[[record]]
compound = "CC(C)=CCC/C(C)=C/CO"
system = "C. elegans"
class = "label 0"

[[record]]
compound = "COC(=O)Nc1nc2ccc(Sc3ccccc3)cc2[nH]1"
system = "C. elegans"
class = "label 1"


Shift focus to the following entry.
Qu. Please indicate if the recorded inhibition at 110 µM for CC1(C)[C@H](O)CC[C@@]2(C)[C@@H]3CC[C@](C)([C@@H](O)CO[C@@H]4O[C@H](CO)[C@@H](O)[C@H](O)[C@H]4O)C=C3CC[C@H]12 [Darutoside] meets or exceeds 10%.
Ans. label 0
